# maps each entry to its IC50
- TEST_SYSTEM: Beta-lactamase VIM-2 (Pseudomonas aeruginosa)
- TEST_NAME: Inhibition of Pseudomonas aeruginosa VIM2 expressed in Escherichia coli BL21(DE3) using fluorocillin as substrate preincubated for 10 mins followed by substrate addition measured after 20 mins by HTS assay
RESULT_TYPE: IC50 (nM)

molecule=Nc1cccc(-c2cc(C(=O)O)nc(C(=O)O)c2)c1 test_system="Beta-lactamase VIM-2 (Pseudomonas aeruginosa)" value_measured=210
molecule="O=C(O)c1cccc(C(=O)O)n1 [DIPICOLINIC ACID]" test_system="Beta-lactamase VIM-2 (Pseudomonas aeruginosa)" value_measured=1660

---

- TEST_NAME: Inhibition of bacterial MBP-fused NDM1 expressed in Escherichia coli BL21(DE3) ausing fluorocillin as substrate preincubated for 20 mins followed by substrate addition measured at 1 sec time interval for 25 mins by fluorescence assay
- Set-up: species or system Bacteria
pIC50: −log10 of the molar value.
# maps each entry to its pIC50
RESULT_TYPE: pIC50

molecule=COc1cccc(-c2cc(C(=O)O)nc(C(=O)O)c2)c1 value_measured=5.97
molecule=O=C(Nc1cccc(-c2cc(C(=O)O)nc(C(=O)O)c2)c1)c1ccccc1 value_measured=6.89
molecule=O=C(O)c1cc(-c2ccccc2O)cc(C(=O)O)n1 value_measured=6.89
molecule=COc1ccccc1-c1cc(C(=O)O)nc(C(=O)O)c1 value_measured=6.30
molecule="O=C(O)c1cccc(C(=O)O)n1 [DIPICOLINIC ACID]" value_measured=6.39
molecule=Nc1ccc(-c2cc(C(=O)O)nc(C(=O)O)c2)cc1 value_measured=6.27
molecule=O=C(Cc1ccccc1)Nc1cccc(-c2cc(C(=O)O)nc(C(=O)O)c2)c1 value_measured=6.23
molecule=CC(=O)Nc1cccc(-c2cc(C(=O)O)nc(C(=O)O)c2)c1 value_measured=6.03
molecule=Nc1cccc(-c2cc(C(=O)O)nc(C(=O)O)c2)c1 value_measured=7.10
molecule=O=C(O)c1cc(-c2cccc(O)c2)cc(C(=O)O)n1 value_measured=6.37
molecule=O=C(O)c1cc(-c2ccc(O)cc2)cc(C(=O)O)n1 value_measured=6.41
molecule=CN(C)c1cccc(-c2cc(C(=O)O)nc(C(=O)O)c2)c1 value_measured=6.37
molecule=CN(C)c1ccc(-c2cc(C(=O)O)nc(C(=O)O)c2)cc1 value_measured=6.72
molecule=COc1ccc(-c2cc(C(=O)O)nc(C(=O)O)c2)cc1 value_measured=6.42
molecule=O=C(O)c1cccc(-c2cc(C(=O)O)nc(C(=O)O)c2)c1 value_measured=6.70
